Listed molecules paired with reported TGI
System: SW-620 colon
Experiment: NCI tumour cell line growth inhibition, 48 h
readout: TGI

>>> result("ClCc1cccc(Cn2cnc3ncnc(Cl)c32)c1")
"32.2 µM"
>>> result("OC(c1nc2ccccc2[nH]1)C(O)C(O)C(O)c1nc2ccccc2[nH]1 (stereo not drawn)")
"> 100 µM"
>>> result("CCCCC(C(=O)NCCNC(=O)CCC(=O)N(C)O)C(=O)NCCNC(=O)CCC(=O)N(C)O")
"> 100 µM"

---

Tested on: UACC-62 melanoma
Assay: NCI tumour cell line growth inhibition, 48 h
readout: TGI

>>> result("COc1ccc(-c2nnc(COc3ccc(C(=O)/C=C/c4ccco4)cc3)o2)cc1")
"11.2 µM"
>>> result("N#CC(C#N)=CNC(N)=S")
"> 100 µM"
>>> result("Cc1ccc(S(=O)(=O)N/N=C/C2(c3ccccc3)c3ccccc3-c3ccccc32)cc1")
"27.3 µM"
>>> result("COc1cc(/C=C/c2cc(O)c(C(C)=O)c(O)c2)cc2c1O[C@]1(C)CC[C@@H](O)C(C)(C)[C@H]1C2")
"11.5 µM"
>>> result("COC1=CC(=O)C(C2CC(=O)c3c(O)cc(O)cc3O2)=CC1=O (stereo unspecified)")
"31.3 µM"
>>> result("Cc1cc(/C=C/c2ccc3cc(N(C)C)ccc3[n+]2C)c(C)n1-c1ccccc1")
"1.27 µM"
>>> result("COc1cc2c(c(OC)c1OC)-c1ccc(OC)c(=O)cc1C(NC(=O)c1ccc(N=[N+]=[N-])cc1)CC2 (stereo unspecified)")
"31.1 µM"
>>> result("COc1ccc2c(c1)/C(=C\\c1c(Cl)nc3sc(C)cn13)C(=O)N2")
"16.4 µM"
>>> result("Nc1ncnc2c1nnn2C1OC(CO)C(O)C1O (stereo unspecified)")
"4.72 µM"
>>> result("COc1cc2c3c(n(C)c(=O)c2cc1OC)-c1cc2c(cc1/C3=C\\CCN)OCO2")
"4.41 µM"
>>> result("O=c1c2sccc2n(CC2COc3ccccc3O2)c(=O)n1O (stereo unspecified)")
"46.4 µM"
>>> result("COc1ccc(-c2nc(SCC(=O)N/N=C/c3ccc(N(C)C)cc3)[nH]c2-c2ccc(OC)cc2)cc1")
"> 100 µM"
>>> result("CCOC(=O)c1ccc(NCC#CCN2CCOCC2)cc1")
"> 100 µM"
>>> result("CCOC(=O)c1cc2nc3ccccc3c(=O)n2c2ccccc12")
"> 10 µM"
>>> result("O=c1[nH]c(Nc2nc3ccccc3[nH]2)nc(O)c1-c1ccccc1")
"> 100 µM"
>>> result("COc1ccc(NC(=O)CC(=O)N2N=C(N3c4ccccc4Sc4ccccc43)CC2c2ccccc2)cc1 (stereo unspecified)")
"> 100 µM"
>>> result("NS(=O)(=O)c1cc(Cl)c(NC(=S)NC(=O)Nc2ccc(Cl)c(Cl)c2)c(Cl)c1")
"90.2 µM"
>>> result("C=C(Br)C(C)(Br)CCC(Br)C(C)(C)Cl (stereo unspecified)")
"40.7 µM"
>>> result("CCOC(=O)c1nc2c(nc1C(=O)OCC)C(=O)c1ccccc1C2=O")
"0.956 µM"
>>> result("Nc1ncnc2n[nH]c(Nc3ccc(F)cc3)c12")
"> 100 µM"
>>> result("Cc1ccc(S(=O)(=O)Nc2ccccc2C(=O)c2ccc(C)c(C)c2)cc1")
"> 100 µM"
>>> result("O=C(O)CCC(=O)OC1N=C(c2ccccc2Cl)c2cc([N+](=O)[O-])ccc2NC1=O (stereo unspecified)")
"> 100 µM"
>>> result("O=C1c2cc3c(cc2-c2c1c1ccc(F)cc1c(=O)n2CCCNCCO)OCO3")
"0.174 µM"
>>> result("O=C(O)/C=C(/C(=O)O)C12CCN3CC4=CCOC5CC(=O)NC1C5C4CC32 (stereo unspecified)")
"> 100 µM"
>>> result("CCCCCCCC(=O)SCC/C=C/[C@@H]1CC(=O)NCc2cc(ccn2)C2=N[C@@](C)(CS2)C(=O)N[C@@H](C(C)C)C(=O)O1")
"0.0507 µM"
>>> result("O=c1c2sc(=S)n(-c3ccc(F)cc3)c2ncn1/N=C/c1ccc(F)cc1F")
"> 100 µM"
>>> result("Cc1ccc(C(=C2Sc3ccccc3S2)C(=C2Sc3ccccc3S2)c2ccc(C)s2)s1")
"> 100 µM"
>>> result("Cc1cc(-c2ccc3nc(C4CCOCC4)n(CCOC(F)(F)F)c3c2)cn(C)c1=O")
"2.06 µM"
>>> result("COc1cccc2c(=O)oc(-c3ccc(C(C)(C)C)cc3)nc12")
"> 100 µM"
>>> result("Cc1ccc2c(c1)C(=O)C1(Cc3ccccc3C1=O)C2 (stereo unspecified)")
"> 100 µM"
>>> result("Cn1c2ccccc2c2cc(-c3ccccc3)c3c(c21)C(=O)c1ccccc1C3=O")
"30.1 µM"
